Biological target: hCA II (Homo sapiens, UniProt P00918)
Construct: recombinant, cytosolic isoform
Assay: stopped-flow CO2 hydration assay
pKi: −log10 of the molar value.
Class true (1): pKi at least 7. Class false (0): pKi below 7.

C=CCOc1ccc(/C=C2/SC(=S)N(CC(=O)Nc3ccc(S(N)(=O)=O)cc3)C2=O)cc1 | false (0)
N#Cc1ccc(/C=C2/SC(=S)N(CC(=O)Nc3ccc(S(N)(=O)=O)cc3)C2=O)cc1 | true (1)
NS(=O)(=O)c1ccc(NC(=O)CN2C(=O)/C(=C\c3ccc(OC(F)(F)F)cc3)SC2=S)cc1 | false (0)
COc1cc(OC)c(OC)cc1/C=C1/SC(=S)N(CC(=O)Nc2ccc(S(N)(=O)=O)cc2)C1=O | false (0)
NS(=O)(=O)c1ccc(NC(=O)CN2C(=O)/C(=C\c3ccc([N+](=O)[O-])cc3)SC2=S)cc1 | true (1)

Dear colleague, could you confirm whether "NS(=O)(=O)c1ccc(NC(=O)CN2C(=O)/C(=C\c3cccc([N+](=O)[O-])c3)SC2=S)cc1" has pKi at or above 7?
true (1)

# check: pKi of "NS(=O)(=O)c1ccc(NC(=O)CN2C(=O)/C(=C3/C(=O)Nc4ccc(Cl)cc43)SC2=S)cc1" is greater than or equal to 7
true (1)
